- testName: Emulsion Test (3 wt% brine / heptane)
- Type: physicochemical
- Design: unit not given here
- testSettings: 50 ml 3 wt% brine/50 ml heptane
Classification field: enter T for Emulsion thickness after 30 mins values not below 1, F for values below it.

Entry "CCCCCCCCCCCCN(CCc1ccncc1)CCc1ccncc1" : is its Emulsion thickness after 30 mins no less than 1?
F

Param item: "CCCCCCCCCCCCNCCc1ccncc1"
F

Param item: "CCCCCCCCCCCCCCCCNCCc1ccncc1"
T

Param item: "CCCCCCCCCCCCCCCCCCNCCc1ccncc1"
T

Param item: "CCCCCCCCCCCCCCNCCc1ccccn1"
F

* * *

- testName: Solubility Test (35 wt% solution in isopropylalcohol shaken with water, brine or heptane)
- Assay type: physicochemical
reportedMetric: SOLUBILITY IN: Heptane

{"columns": ["molecule", "reportedMetric", "result"],
 "data": [
  ["CCCCCCNCCc1ccccn1 [Example 1]", "SOLUBILITY IN: Heptane", "S"],
  ["CCCCCCCCNCCc1ccccn1 [Example 2]", "SOLUBILITY IN: Heptane", "S"],
  ["CCCCCCNCCc1ccncc1 [Example 22]", "SOLUBILITY IN: Heptane", "S"],
  ["CCCCCCCCNCCc1ccncc1 [Example 23]", "SOLUBILITY IN: Heptane", "S"]
]}

* * *

- testName: Corrosion Test 1 (dynamic wheel test; 3 wt% brine/Mentor 28; CO2 + H2S)
- testSettings: 50 ppm; 24 h, 70° C.; 30% solution
Counter-ions that a name gives are not always drawn.
Could you please report measured % Protection for the items listed next?
Write down the numeric answer in % and omit the unit.

For the compound CCCCCCCCCCCCNCCc1ccccn1 [21 acetate salt] , what % Protection is on record?
94

Param item: CCc1ccncc1 [4-ethylpyridine.HCL, reference compound]
13

Param item: CCCCCCCCCCCCCCCCCCNCCc1ccncc1 [Example 28]
48

Param item: CCCCCCCCCCCCCCCCCCNCCc1ccccn1 [Example 7]
87

Param item: CCCCCCCCNCCc1ccncc1 [Example 23]
83

* * *

- testName: Emulsion Test (3 wt% brine / heptane)
- Assay type: physicochemical
- testSettings: water layer; 50 ml 3 wt% brine/50 ml heptane
- Experimental: 1 ml of the solutions used for Test A was shaken with 50 ml of 3 wt% brine and 50 ml of heptane for 1 minute in a 150 ml bottle. The emulsion was observed, and the time noted for the emulsion to break and form a clean interface with clear liquid layers. If at 30 minutes this had not occurred, the appearance was recorded together with the thickness of any persisting emulsion.
reportedMetric: Appearance after 30 mins, water

{"columns": ["smilesNotation", "Appearance after 30 mins, water"],
 "data": [
  ["CCCCCCCCCCCCN(CCc1ccncc1)CCc1ccncc1", "hazy"],
  ["CCCCCCCCCCCCNCCc1ccccn1", "hazy"],
  ["NCCCNCCc1ccncc1", "clear"],
  ["c1ccc(CN(CCc2ccccn2)CCc2ccccn2)cc1", "clear"],
  ["NCCNCCc1ccccn1", "hazy"],
  ["CCCCCCCCCCCCCCNCCc1ccccn1", "hazy"]
]}

For the compound "c1ccc(CNCCc2ccccn2)cc1" , what Appearance after 30 mins, water is on record?
hazy

Param item: "NCCNCCc1ccncc1"
hazy

Param item: "CCCCCCNCCc1ccncc1"
clear

Param item: "NCCNCCNCCNCCc1ccncc1"
clear

Param item: "CCCCCCCCCCCCCCCCCCNCCc1ccccn1"
clear

Param item: "CCCCCCCCCCCCN(CCc1ccccn1)CCc1ccccn1"
hazy
